assay: yeast display, Sf9 membrane polyspecificity reagent, FACS + sequencing; frameworks hold sequencing errors
readout type: polyreactivity (PSR sort gate)

Answered examples (4):
QVQLVESGGGIVQAGGSLRLSCAASGISFLRYAMGWYRQAPGKEREFVAAINSIVGRTYYADSVKGRFTISRDNAKNTVYLQMNSLIPDDTAVYYCAADSNVRYGMDYWGQGTQVTVSS	low polyreactivity
QVQLVESGGGLFHAGGSLRLSCAASGSTFTDDDMGWYRQAPGKERELVAAMSWSGGSTYYADSVKGRFTISRDNAKNTVYLQMNSLKPDDTADYYCAFRYHGYDYWGQGTQVTVSS	high polyreactivity
QVQLVESGGGLVQAGGSLRLSCAASGFIFRKYAMGWYRQAPGKERELVAAIRQRGGTTYYADSVKGRFTISRDNAKNTVYLQMNSLKPEDTAVYYCAAPYSSAYKYDYWGQGTQVTVSS	high polyreactivity
QVQLVESGGGLVQAGGSLRLSCDASGRIFFWYAMGWYRQAPGKERELVAGITSAGSTNYADSVKGRFTISRDNAKNTVYLQMNSLKPEDTSVYFCNTVDSIPIGSGLYYYWGQGTQVTVSS	low polyreactivity

Alright, here's another sequence for you.
Ask: Any idea what polyreactivity (PSR sort gate) was measured for QVQLVESGGGLVQAGGSLRLSCAASGSIFIINTMGWYRQAPGKERELVAAISWGGTDTNYADSVKGRFTISRDNAKNTVYLQMNSLKPEDTAVYYCNTDQDLVRSYDYWGHGTQVTVSS ?
Reply: low polyreactivity

* * *

experiment: yeast display, Sf9 membrane polyspecificity reagent, FACS + sequencing; frameworks hold sequencing errors
readout type: polyreactivity (PSR sort gate)

Answered examples (6):
QVQLVESGGGIVQAGGSLRLSCAASGPTFYLYDTMGWYRQAPGKERELVAAISWDDGDTYYADSVKGRFTISRDNAKNTVYLQMNSLKPEDTAVYYCAAESLSGAHGYWGQGTQVTVSS	low polyreactivity
QVQLVESGGGLVQAGGSLRLSCAASGPTFWRNAMGWYRQAPGKEREFVASISRSGGSTYYADSVKGRFTISRDNAKNTVYLQMNSLKPEDTAVYYCAALGVRGYRGPGGQDYNSWGQGTQVTVSS	high polyreactivity
QVQLVESGGGLVQAGGSLRLSCAASGSTSRIYGMGWYRQAPGTDRELVAAITRSGNTYADSVKGRFTISRDNANNTDYLQMNSLKPDDTAVYYCATAWRFTYFGYEYWGQGTQVTVSS	high polyreactivity
QVQLVESGGGLVQAGGSLRLSCAASGSTFWKYAMGWYRQAPGKERELVASIRSGGSTYYADSVKGRFTISRDNAKNTVYLQMNSLKPEDTAVYYCAAVTHGRYDWGQGTQVTVSS	high polyreactivity
QVQLVESGGGLVQAGGSLRLSCAASGRTFTRNAMGWYRQAPGKERELVAVITSSGRTNYADSVKGRFTISRDNAKKTVYLQMNSLKPEDTAVYYCNKVSARYPYPLYDYWGQGTQVTVSS	high polyreactivity
QVQLVESGGGLVQAGGSLRLSCAASGRTFHHNAMGWYRQAPGKERELVATITAGSGSTYYADSVKGRFTISRDNAKNTVYLQMNSQKPEDTAVYYCAARVGWNKRRYDYWGQCTQVTVSS	low polyreactivity

Ask: Any idea what polyreactivity (PSR sort gate) was measured for QVQLVESGGGLVQAGGRLRLSCAASGSISYFNDMGWYRQAPGKERELVAAIRDSGGITYADSVKGRFTISRDNAKNTVYLQMNSLKPEDTAVYYCATYGNEIYDYWGQGTQVTVSS ?
Reply: low polyreactivity

Ask: Any idea what polyreactivity (PSR sort gate) was measured for QVQLVESGGGLVQAGGSLRLSCAASGSIFDRYVMGWYRPAPGKERELVAAISKSGGNTYYADSVKGRFTISRDYEKNTVYLQMNSLKPEDTAVYYCNARSGRYYLGYGYWGQGTQVTVSS ?
Reply: high polyreactivity
